# Tested on: Drosophila melanogaster
# test: olfactory response index (dipstick assay) (fraction of flies (RI; 1 aversion, 0.5 indifferent, 0 attraction)); higher = stronger aversion to the odorant
# test.conditions: genotype (tubulin-GAL4 x UAS-RNAi line; control = progenitor): obp 58b; odorant concentration: 1% v/v; female
measure.name: olfactory response index

- compound: "CC(=O)OCCC(C)C [isoamyl acetate]"
  measured.number: 0.364
- compound: "Cc1cnccn1 [2-methylpyrazine]"
  measured.number: 0.159
- compound: "CC(C)=CCC/C(C)=C/CO [geraniol]"
  measured.number: 0.591
- compound: "CCC=O [propanal]"
  measured.number: 0.625
- compound: "CCCCCC(C)=O [2-heptanone]"
  measured.number: 0.277
- compound: "CCc1cnccn1 [2-ethylpyrazine]"
  measured.number: 0.256
- compound: "CC(C)=CCCC(C)=CC=O (mixture of isomers) [citral]"
  measured.number: 0.687
- compound: "CC(=O)c1ccccc1 [acetophenone]"
  measured.number: 0.621
